Test system: brain function development of infants
measurementProtocol: Spearman correlation of NAD-related substance concentration in 1-month breast milk with ASQ-3 developmental scores at 24 months
Format: in vivo, human
testParameters: Gross motor, ASQ-3 at 24 months, 1-month breast milk
Known Correlation with concentration, r (Spearman) of a selection of compounds
Number only, please.

The cases that follow already have their Correlation with concentration, r (Spearman) on record.
compound	studySystem	measuredResult
NC(=O)c1ccc[n+]([C@@H]2O[C@H](CO)[C@@H](O)[C@H]2O)c1 [NR, nicotinamide riboside]	brain function development of infants	0.082
NC(=O)c1ccc[n+]([C@@H]2O[C@H](COP(=O)([O-])O)[C@@H](O)[C@H]2O)c1 [NMN, nicotinamide mononucleotide]	brain function development of infants	0.186
NC(=O)c1ccc[n+]([C@@H]2O[C@H](COP(=O)([O-])OP(=O)(O)OC[C@H]3O[C@@H](n4cnc5c(N)ncnc54)[C@H](O)[C@@H]3O)[C@@H](O)[C@H]2O)c1 [NAD, nicotinamide adenine dinucleotide]	brain function development of infants	0.077

Then there is this compound:
Item: "O=C(O)c1cccnc1" | Correlation with concentration, r (Spearman): 0.095
